system: Strept. sanguis L1721; assay: MIC by microbroth dilution; assay type: cell-based, Streptococcus sanguis; details: 0,01% BSA, 10^4 CFU/ml, 18-24 h, Todd Hewitt broth
Measurement Name: MIC of the compounds (µg/mL)
Enter your answer as a number in µg/mL; do not include the unit.

Known MIC of the compounds results, listed for orientation:
{"Compound": "CNC(=O)CC1NC(=O)c2csc(n2)-c2ccc(-c3nc(C4=NC(C(=O)NCCN5CCCC5)CO4)cs3)nc2-c2csc(n2)-c2csc(n2)C(C(O)c2ccccc2)NC(=O)CNC(=O)c2nc(sc2COC)C(C(C)C)NC(=O)c2nc1sc2C (mixture of isomers)", "MIC of the compounds, µg/mL": 0.5}
{"Compound": "CNC(=O)CC1NC(=O)c2csc(n2)-c2ccc(-c3nc(C4=NC(C(=O)N(C)CC(=O)N(C)CCN(C)C)CO4)cs3)nc2-c2csc(n2)-c2csc(n2)C(C(O)c2ccccc2)NC(=O)CNC(=O)c2nc(sc2COC)C(C(C)C)NC(=O)c2nc1sc2C (mixture of isomers)", "MIC of the compounds, µg/mL": 0.25}
{"Compound": "CNC(=O)CC1NC(=O)c2csc(n2)-c2ccc(-c3nc(C4=NC(C(=O)N(C)CCN(C)C)CO4)cs3)nc2-c2csc(n2)-c2csc(n2)C(C(O)c2ccccc2)NC(=O)CNC(=O)c2nc(sc2COC)C(C(C)C)NC(=O)c2nc1sc2C (stereo not shown) [Compound 4s]", "MIC of the compounds, µg/mL": 0.13}

Consider the additional compound presented here.
The measured MIC of the compounds associated with CNC(=O)CC1NC(=O)c2csc(n2)-c2ccc(-c3nc(C4=NC(C(=O)N(C)CCN(C)C)CO4)cs3)nc2-c2csc(n2)-c2csc(n2)C(C(O)c2ccccc2)NC(=O)CNC(=O)c2nc(sc2COC)C(C(C)C)NC(=O)c2nc1sc2C (mixture of isomers) [Compound 4] reads 0.13

====

Recorded MIC of the compounds for the following molecules
tested on: Bacteroides fragilis ATCC 25285 L1011; experiment: MIC by microbroth dilution; format: cell-based; conditions: 0,01% BSA, 10^5 CFU/ml, 48 h, anaerobic, Wilkins-Chalgren broth
Enter your answer as a number in µg/mL; do not include the unit.

{"Molecule": "CNC(=O)CC1NC(=O)c2csc(n2)-c2ccc(-c3nc(C4=NC(C(=O)N(C)CCN5CCN(CCO)CC5)CO4)cs3)nc2-c2csc(n2)-c2csc(n2)C(C(O)c2ccccc2)NC(=O)CNC(=O)c2nc(sc2COC)C(C(C)C)NC(=O)c2nc1sc2C (stereo not shown) [Compound 19s]", "Tested On": "Bacteroides fragilis ATCC 25285 L1011", "MIC of the compounds / µg/mL": 8}

The measured MIC of the compounds associated with CNC(=O)CC1NC(=O)c2csc(n2)-c2ccc(-c3nc(C4=NC(C(=O)N(C)CCN(C)C)CO4)cs3)nc2-c2csc(n2)-c2csc(n2)C(C(O)c2ccccc2)NC(=O)CNC(=O)c2nc(sc2COC)C(C(C)C)NC(=O)c2nc1sc2C (mixture of isomers) [Compound 4] reads 8

The measured MIC of the compounds associated with CNC(=O)CC1NC(=O)c2csc(n2)-c2ccc(-c3nc(C4=NC(C(=O)NCCCN(C)C)CO4)cs3)nc2-c2csc(n2)-c2csc(n2)C(C(O)c2ccccc2)NC(=O)CNC(=O)c2nc(sc2COC)C(C(C)C)NC(=O)c2nc1sc2C (mixture of isomers) [Compound 5] reads 32

The measured MIC of the compounds associated with CNC(=O)CC1NC(=O)c2csc(n2)-c2ccc(-c3nc(C4=NC(C(=O)N(C)CCN(C)C)CO4)cs3)nc2-c2csc(n2)-c2csc(n2)C(C(O)c2ccccc2)NC(=O)CNC(=O)c2nc(sc2COC)C(C(C)C)NC(=O)c2nc1sc2C (stereo not shown) [Compound 4s] reads 8

====

system: Strept. agalactiae L310; assay: MIC by microbroth dilution; assay type: cell-based, Streptococcus agalactiae; details: 0,01% BSA, 10^4 CFU/ml, 18-24 h, Todd Hewitt broth
Measurement Name: MIC of the compounds (µg/mL)
Enter your answer as a number in µg/mL; do not include the unit.

Note to self: MIC of the compounds of CNC(=O)CC1NC(=O)c2csc(n2)-c2ccc(-c3nc(C4=NC(C(=O)NCCCN(C)C)CO4)cs3)nc2-c2csc(n2)-c2csc(n2)C(C(O)c2ccccc2)NC(=O)CNC(=O)c2nc(sc2COC)C(C(C)C)NC(=O)c2nc1sc2C (mixture of isomers) with Strept. agalactiae L310 was 2

====

Test system: Strept. agalactiae L310
Assay: MIC by microbroth dilution
Format: cell-based, Streptococcus agalactiae
Conditions: 0,01% BSA, 10^4 CFU/ml, 18-24 h, Todd Hewitt broth
Method: The minimal inhibitory concentration (MIC) has been determined by microbroth dilution methodology, in the presence of 0,01% (w/v) of bovine serum albumin (BSA). […] Inocula were 10^4 CFU/ml, except for Propionibacterium acnes and Bacteroides fragilis (10^5 CFU/ml) MICs were read after 18-24 h, except for Haemophilus influenzae, P. acnes, B. fragilis (48 h). […]
Recorded MIC of the compounds for the following compounds

Known MIC of the compounds results, listed for orientation:
{"Compound": "CNC(=O)CC1NC(=O)c2csc(n2)-c2ccc(-c3nc(C4=NC(C(=O)N(C)CCN5CCN(CCO)CC5)CO4)cs3)nc2-c2csc(n2)-c2csc(n2)C(C(O)c2ccccc2)NC(=O)CNC(=O)c2nc(sc2COC)C(C(C)C)NC(=O)c2nc1sc2C (mixture of isomers)", "Tested On": "Strept. agalactiae L310", "MIC of the compounds": "2 µg/mL"}
{"Compound": "CNC(=O)CC1NC(=O)c2csc(n2)-c2ccc(-c3nc(C4=NC(C(=O)N(C)CC(=O)N(C)CCN(C)C)CO4)cs3)nc2-c2csc(n2)-c2csc(n2)C(C(O)c2ccccc2)NC(=O)CNC(=O)c2nc(sc2COC)C(C(C)C)NC(=O)c2nc1sc2C (mixture of isomers)", "Tested On": "Strept. agalactiae L310", "MIC of the compounds": "4 µg/mL"}
{"Compound": "CNC(=O)CC1NC(=O)c2csc(n2)-c2ccc(-c3nc(C4=NC(C(=O)NCCN5CCCC5)CO4)cs3)nc2-c2csc(n2)-c2csc(n2)C(C(O)c2ccccc2)NC(=O)CNC(=O)c2nc(sc2COC)C(C(C)C)NC(=O)c2nc1sc2C (mixture of isomers)", "Tested On": "Strept. agalactiae L310", "MIC of the compounds": "4 µg/mL"}

Consider the additional compound presented here.
The measured MIC of the compounds associated with CNC(=O)CC1NC(=O)c2csc(n2)-c2ccc(-c3nc(C4=NC(C(=O)N(C)CCN(C)C)CO4)cs3)nc2-c2csc(n2)-c2csc(n2)C(C(O)c2ccccc2)NC(=O)CNC(=O)c2nc(sc2COC)C(C(C)C)NC(=O)c2nc1sc2C (stereo not shown) [Compound 4s] reads 0.5 µg/mL

====

test system: Strept. sanguis L1721; assay: MIC by microbroth dilution; type: cell-based, Streptococcus sanguis; conditions: 0,01% BSA, 10^4 CFU/ml, 18-24 h, Todd Hewitt broth
Recorded MIC of the compounds for the following compounds
Give your result as the value with the unit written after it.

{"Compound": "CNC(=O)CC1NC(=O)c2csc(n2)-c2ccc(-c3nc(C4=NC(C(=O)NCCN(C(C)C)C(C)C)CO4)cs3)nc2-c2csc(n2)-c2csc(n2)C(C(O)c2ccccc2)NC(=O)CNC(=O)c2nc(sc2COC)C(C(C)C)NC(=O)c2nc1sc2C (mixture of isomers) [Compound 11]", "Measurement Name": "MIC of the compounds", "Endpoint Result": "4 µg/mL"}
{"Compound": "CNC(=O)CC1NC(=O)c2csc(n2)-c2ccc(-c3nc(C4=NC(C(=O)NCCN(C)C)CO4)cs3)nc2-c2csc(n2)-c2csc(n2)C(C(O)c2ccccc2)NC(=O)CNC(=O)c2nc(sc2COC)C(C(C)C)NC(=O)c2nc1sc2C (mixture of isomers) [Compound 7]", "Measurement Name": "MIC of the compounds", "Endpoint Result": "1 µg/mL"}

Note to self: MIC of the compounds of CCN1CCCC1CNC(=O)C1COC(c2csc(-c3ccc4c(n3)-c3csc(n3)-c3csc(n3)C(C(O)c3ccccc3)NC(=O)CNC(=O)c3nc(sc3COC)C(C(C)C)NC(=O)c3nc(sc3C)C(CC(=O)NC)NC(=O)c3csc-4n3)n2)=N1 (mixture of isomers) [Compound 1] with Strept. sanguis L1721 was 0.5 µg/mL

Note to self: MIC of the compounds of CNC(=O)CC1NC(=O)c2csc(n2)-c2ccc(-c3nc(C4=NC(C(=O)N(C)CCN5CCN(CCO)CC5)CO4)cs3)nc2-c2csc(n2)-c2csc(n2)C(C(O)c2ccccc2)NC(=O)CNC(=O)c2nc(sc2COC)C(C(C)C)NC(=O)c2nc1sc2C (mixture of isomers) [Compound 19] with Strept. sanguis L1721 was 0.13 µg/mL

Note to self: MIC of the compounds of CNC(=O)CC1NC(=O)c2csc(n2)-c2ccc(-c3nc(C4=NC(C(=O)NCCCN(C)C)CO4)cs3)nc2-c2csc(n2)-c2csc(n2)C(C(O)c2ccccc2)NC(=O)CNC(=O)c2nc(sc2COC)C(C(C)C)NC(=O)c2nc1sc2C (mixture of isomers) [Compound 5] with Strept. sanguis L1721 was 0.25 µg/mL

Note to self: MIC of the compounds of CNC(=O)CC1NC(=O)c2csc(n2)-c2ccc(-c3nc(C4=NC(C(=O)N5CCC(N(C)C)CC5)CO4)cs3)nc2-c2csc(n2)-c2csc(n2)C(C(O)c2ccccc2)NC(=O)CNC(=O)c2nc(sc2COC)C(C(C)C)NC(=O)c2nc1sc2C (stereo not shown) [Compound 10s] with Strept. sanguis L1721 was 0.5 µg/mL

Note to self: MIC of the compounds of CNC(=O)CC1NC(=O)c2csc(n2)-c2ccc(-c3nc(C4=NC(C(=O)NC(C)C(=O)N(C)CCN(C)C)CO4)cs3)nc2-c2csc(n2)-c2csc(n2)C(C(O)c2ccccc2)NC(=O)CNC(=O)c2nc(sc2COC)C(C(C)C)NC(=O)c2nc1sc2C (mixture of isomers) [Compound 15] with Strept. sanguis L1721 was 0.5 µg/mL
